molecular target: Transcription factor Sp1 (Homo sapiens) (UniProt P08047); assay: ATG_Sp1_CIS: Attagene CIS-FACTORIAL HepG2 Assay for human Specificity Protein 1 (Sp1) (AID 2282961); conditions: HepG2 Sp1 cis-reporter transcription, actives raise or lower the signal
Sequence (P08047 whole entry, looked up): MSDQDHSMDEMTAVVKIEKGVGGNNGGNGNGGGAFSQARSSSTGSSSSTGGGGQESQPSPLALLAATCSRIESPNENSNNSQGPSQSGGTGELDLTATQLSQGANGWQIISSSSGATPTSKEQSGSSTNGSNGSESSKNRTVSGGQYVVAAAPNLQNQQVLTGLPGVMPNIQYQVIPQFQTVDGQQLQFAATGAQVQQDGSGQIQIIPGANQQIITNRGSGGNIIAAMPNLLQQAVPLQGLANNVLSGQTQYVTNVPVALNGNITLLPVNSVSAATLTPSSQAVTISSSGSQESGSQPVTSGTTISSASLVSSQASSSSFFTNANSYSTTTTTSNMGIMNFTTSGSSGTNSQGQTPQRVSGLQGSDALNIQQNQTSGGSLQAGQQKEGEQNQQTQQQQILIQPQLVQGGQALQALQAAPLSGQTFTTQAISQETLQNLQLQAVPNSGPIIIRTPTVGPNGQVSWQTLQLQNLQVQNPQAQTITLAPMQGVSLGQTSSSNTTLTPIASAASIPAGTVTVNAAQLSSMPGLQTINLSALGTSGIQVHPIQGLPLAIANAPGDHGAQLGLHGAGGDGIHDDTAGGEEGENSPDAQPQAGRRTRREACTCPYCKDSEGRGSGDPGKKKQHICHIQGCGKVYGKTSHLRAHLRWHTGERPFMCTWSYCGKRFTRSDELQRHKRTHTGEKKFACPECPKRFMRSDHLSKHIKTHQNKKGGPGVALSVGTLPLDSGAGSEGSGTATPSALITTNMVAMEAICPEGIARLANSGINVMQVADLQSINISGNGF
Calls of active or inactive are those of the source. How the source made its calls: active means hit-call score of the fitted dose curve at least 0.9, where 1 is the maximum; inactive means score below 0.9.
Quantity Kind: outcome

| Molecule | outcome |
| --- | --- |
| CCCCCCCCC=O | inactive |
| C=CC(=O)OCCOCCOCC | inactive |
| O=C1C(c2[nH]c3ccc(S(=O)(=O)O)cc3c2O)=Nc2ccc(S(=O)(=O)O)cc21 | inactive |
| Nc1cc(Cl)c(O)c(Cl)c1 | inactive |

INPUT: Look up outcome for this molecule: CC(=O)C=CC1=C(C)CCCC1(C)C
OUTPUT: inactive

INPUT: Please answer likewise for CC(C)C1CCC(O)CC1 (stereo not given)
OUTPUT: inactive

INPUT: And the next one, CCCC(=O)c1cc(O)c(O)cc1O ?
OUTPUT: inactive

INPUT: Repeat with CCCCCCCCCOC(C)=O
OUTPUT: inactive

INPUT: Query CCc1ccc(C=O)cc1 next
OUTPUT: inactive

INPUT: Now consider CC(CC(C)(C)C)CC(C)(C)CC(C)(C)C (stereo not given) and answer again.
OUTPUT: inactive

###

experiment: BSK_3C_Vis: BioMAP Diversity Plus: 3C Assay for Morphology Visualization (AID 2283025); details: primary human endothelial cells (HUVEC);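 further: fitted both ways so gain or loss versus DMSO counts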
The source made the active and inactive calls. The calls were made as follows: active = hit-call score of the fitted dose curve at least 0.9, where 1 is the maximum; inactive = score below 0.9.
Allowed answers: yes (active), no (inactive)

INPUT: For this compound, state the assay outcome: O=C=NC1CCC(CC2CCC(N=C=O)CC2)CC1 (stereo unspecified)
OUTPUT: yes

INPUT: What would you report for CC(=O)/C=C/C1=C(C)CCCC1(C)C ?
OUTPUT: no

INPUT: Same thing, different compound: CNC[C@H](O)c1cccc(O)c1
OUTPUT: no

INPUT: Again, but for CC(C)c1ccc(C(C)C)cc1
OUTPUT: yes

###

test: ATG_MRE_CIS: Attagene CIS-FACTORIAL HepG2 Assay for human Metal Responsive Element (MRE) (AID 2282954); conditions: HepG2 MRE cis-reporter transcription, Attagene multiplex; actives raise or lower the signal
The source made the active and inactive calls. Rule for the calls: active = hit-call score of the fitted dose curve at least 0.9, where 1 is the maximum; inactive = score below 0.9.
Write down the outcome that applies. Available outcomes: true (1) (active), false (0) (inactive)

The following compounds have reported results that may help.
| Compound | Assigned Category |
| --- | --- |
| C=C(C)[C@@H]1CC[C@@H](C)C[C@@H]1O | false (0) |
| C#C[C@]1(O)CC[C@H]2[C@@H]3CCC4=Cc5oncc5C[C@]4(C)[C@H]3CC[C@@]21C | true (1) |
| C[C@H]1C[C@H]2[C@@H]3CCC4=CC(=O)C=C[C@]4(C)[C@@]3(F)[C@@H](O)C[C@]2(C)[C@@]1(O)C(=O)COP(=O)(O)O | false (0) |
| OCCOCCOCCOCCO | false (0) |
| CCc1c(C)cc(N)c(CC)c1N | false (0) |
| O=CCCc1ccccc1 | false (0) |

INPUT: How did this test come out for OCc1cccnc1 ?
OUTPUT: false (0)

INPUT: Then this compound: CCC(=O)/C=C/C1C(C)=CCCC1(C)C (configuration not stated)
OUTPUT: false (0)

INPUT: Consider next the compound CCCCCCOC(=O)CCCCC in the same way.
OUTPUT: false (0)

INPUT: Another compound to look at: CC1CCC(C(C)CS)CC1S (configuration not stated)
OUTPUT: false (0)

INPUT: Please answer likewise for NC(N)=NC(=O)c1nc(Cl)c(N)nc1N
OUTPUT: false (0)

###

Experiment: ATG_RORE_CIS: Attagene CIS-FACTORIAL HepG2 Assay for human RAR-related Orphan Receptor Element (RORE) (AID 2282959)
Settings: HepG2 Attagene cis-factorial RORE reporter, mRNA; actives raise or lower the signal
Experimental: ATG_CIS is a cell-based, multiplexed-readout assay that uses HepG2, a human liver cell line, with measurements taken at 24 hours after chemical dosing in a 24-well plate.ATG_RORE_CIS is one of 52 assay component(s) measured or calculated from the ATG_CIS assay. […] This assay endpoint, ATG_RORE_CIS, was analyzed with bidirectional fitting relative to DMSO as the negative control and baseline of activity. […]
Activity calls are given as the source filed them. The calls were made as follows: active = hit-call score of the fitted dose curve at least 0.9, where 1 is the maximum; inactive = score below 0.9.
Please answer using one outcome listed in true for active, false for inactive

| Input Smiles | Assigned Category |
| --- | --- |
| O=C(O)CCCCCCCCCCC(=O)O | false |

INPUT: Query: recorded result category for COC(=O)c1ccc(C)cc1 in this test
OUTPUT: false

INPUT: Continue with CCCCCCC#CC(=O)OC
OUTPUT: false

INPUT: What would you report for CCc1c(C)cc(N)c(CC)c1N ?
OUTPUT: false

INPUT: Record: CC(C)Oc1ccccc1O
OUTPUT: false

INPUT: Likewise for CCOc1ccccc1OCC ?
OUTPUT: false

INPUT: Request: O=C[C@H](O)[C@H](O)[C@H](O)CO
OUTPUT: false

INPUT: And what about the compound N#Cc1nc(Cl)c(Cl)c(Cl)c1Cl ?
OUTPUT: false

INPUT: Now the compound Cc1c(Cl)c(=O)oc2cc(O)ccc12
OUTPUT: false

INPUT: Can you check CCn1c2ccccc2c2cc(N)ccc21 next?
OUTPUT: true

INPUT: Note, next up: CC(C)(N)CO
OUTPUT: false

###

experiment: ATG_BRE_CIS: Attagene CIS-FACTORIAL HepG2 Assay for human Bone Morphogenetic Protein (BMP) Response Element (BRE) (AID 2282933); conditions: HepG2 BMP response element reporter, Attagene transcription factor profiling; actives raise or lower the signal
The source made the active and inactive calls. How the source made its calls: active means hit-call score of the fitted dose curve at least 0.9, where 1 is the maximum; inactive means score below 0.9.
Field 'call' accepts active, inactive

Below are worked cases with known answers.
| Molecule | Assigned Category |
| --- | --- |
| CCN(CC)c1ccc2c(-c3ccccc3C(=O)O)c3ccc(=[N+](CC)CC)cc-3oc2c1 | active |
| C=CC(=O)OCC(O)COc1ccccc1 (stereo not given) | active |
| O=C(O)C[C@H](O)C[C@H](O)/C=C/c1c(C2CC2)nc2ccccc2c1-c1ccc(F)cc1 | inactive |

INPUT: Given CCC(=O)OCCC(C)CCC=C(C)C (stereo not given) , state the outcome it received in this test.
OUTPUT: inactive

INPUT: // next record [Ca+2]
OUTPUT: inactive

INPUT: Next record, please: CC(CCO)CCc1ccccc1 (stereo not given)
OUTPUT: inactive

INPUT: What about this molecule? CC(C)C1CCC(O)CC1 (stereo not given)
OUTPUT: inactive

INPUT: Param item: NC(=O)NC1NC(=O)NC1=O (stereo not given)
OUTPUT: inactive

INPUT: Another molecule to check: COc1ccc(Nc2ccccc2)c(C)c1
OUTPUT: active

INPUT: Next: Nc1ccc(S(N)(=O)=O)cc1
OUTPUT: inactive

INPUT: Here is the next molecule: CC[Si](OC(C)=O)(OC(C)=O)OC(C)=O
OUTPUT: inactive

INPUT: Also need CCC(O)CO (stereo not given) , thanks.
OUTPUT: inactive

INPUT: Cool, now CC(C)(Oc1ccc(CCNC(=O)c2ccc(Cl)cc2)cc1)C(=O)O
OUTPUT: inactive

INPUT: Now consider C=C(C)[C@@H]1CC[C@@H](C)C[C@@H]1O .
OUTPUT: inactive

###

assay: BSK_4H_Eotaxin3: BioMAP Diversity Plus: 4H Assay for Eotaxin 3 Biomarker Activity (AID 2283000); settings: primary human endothelial cells (HUVEC); actives raise or lower the signal
Activity calls are given as the source filed them. Rule for the calls: active = hit-call score of the fitted dose curve at least 0.9, where 1 is the maximum; inactive = score below 0.9.
Entry note: the call must match one of active, inactive

As a guide, the following entries are already answered.
| Compound | Assigned Category |
| --- | --- |
| O=P(c1ccccc1)(c1ccccc1)c1ccccc1 | inactive |
| CN(CCOc1ccc(CC2SC(=O)NC2=O)cc1)c1ccccn1 (centres undefined) | active |
| Cc1cc(C2(c3cc(C)c(O)cc3C)OS(=O)(=O)c3ccccc32)c(C)cc1O | inactive |
| CC(=O)Nc1ccccc1O | inactive |
| N#Cc1ccc(CC(=NNC(=O)Nc2ccc(OC(F)(F)F)cc2)c2cccc(C(F)(F)F)c2)cc1 | inactive |

INPUT: // param item: CC(C)c1ccc(C(C)C)cc1 ; yields the recorded call
OUTPUT: active

INPUT: And for O=C(O)c1ccc([N+](=O)[O-])cc1 ?
OUTPUT: inactive

INPUT: Could you do the same for CC[Si](OC(C)=O)(OC(C)=O)OC(C)=O , please?
OUTPUT: inactive

INPUT: Try the compound C=C(C)C(=O)O[C@H]1C[C@@H]2CC[C@@]1(C)C2(C)C
OUTPUT: active

###

assay: ATG_E_Box_CIS: Attagene CIS-FACTORIAL HepG2 Assay for human Enhancer Box (E-box) (AID 2282936); details: HepG2 E-box cis-reporter transcription, actives raise or lower the signal
Calls of active or inactive are those of the source. Rule for the calls: active = hit-call score of the fitted dose curve at least 0.9, where 1 is the maximum; inactive = score below 0.9.
Respond only with the outcome that fits, drawn from YES = active, NO = inactive

Some solved entries appear below for comparison.
| Molecule | Assigned Category |
| --- | --- |
| N#Cc1nc(Cl)c(Cl)c(Cl)c1Cl | YES |
| Fc1c(F)c(F)c(Br)c(F)c1F | NO |
| CN(CCOc1ccc(CC2SC(=O)NC2=O)cc1)c1ccccn1 (configuration not stated) | NO |

INPUT: Test call, this molecule: BrC1CCC(Br)C(Br)CCC(Br)C(Br)CCC1Br (configuration not stated)
OUTPUT: NO

INPUT: Same question for Clc1ccc2c(c1)C(N1CCNCC1)=Nc1ccccc1O2 please.
OUTPUT: NO

INPUT: Next record, please: CC(C)[C@@H]1CC[C@@H](C)CC1=O
OUTPUT: NO

INPUT: Moving on to the next molecule: COCCOCCOCCOCCOCCO
OUTPUT: NO
